experimental.system: UniProt O15294
Sequence (O15294 2-1046): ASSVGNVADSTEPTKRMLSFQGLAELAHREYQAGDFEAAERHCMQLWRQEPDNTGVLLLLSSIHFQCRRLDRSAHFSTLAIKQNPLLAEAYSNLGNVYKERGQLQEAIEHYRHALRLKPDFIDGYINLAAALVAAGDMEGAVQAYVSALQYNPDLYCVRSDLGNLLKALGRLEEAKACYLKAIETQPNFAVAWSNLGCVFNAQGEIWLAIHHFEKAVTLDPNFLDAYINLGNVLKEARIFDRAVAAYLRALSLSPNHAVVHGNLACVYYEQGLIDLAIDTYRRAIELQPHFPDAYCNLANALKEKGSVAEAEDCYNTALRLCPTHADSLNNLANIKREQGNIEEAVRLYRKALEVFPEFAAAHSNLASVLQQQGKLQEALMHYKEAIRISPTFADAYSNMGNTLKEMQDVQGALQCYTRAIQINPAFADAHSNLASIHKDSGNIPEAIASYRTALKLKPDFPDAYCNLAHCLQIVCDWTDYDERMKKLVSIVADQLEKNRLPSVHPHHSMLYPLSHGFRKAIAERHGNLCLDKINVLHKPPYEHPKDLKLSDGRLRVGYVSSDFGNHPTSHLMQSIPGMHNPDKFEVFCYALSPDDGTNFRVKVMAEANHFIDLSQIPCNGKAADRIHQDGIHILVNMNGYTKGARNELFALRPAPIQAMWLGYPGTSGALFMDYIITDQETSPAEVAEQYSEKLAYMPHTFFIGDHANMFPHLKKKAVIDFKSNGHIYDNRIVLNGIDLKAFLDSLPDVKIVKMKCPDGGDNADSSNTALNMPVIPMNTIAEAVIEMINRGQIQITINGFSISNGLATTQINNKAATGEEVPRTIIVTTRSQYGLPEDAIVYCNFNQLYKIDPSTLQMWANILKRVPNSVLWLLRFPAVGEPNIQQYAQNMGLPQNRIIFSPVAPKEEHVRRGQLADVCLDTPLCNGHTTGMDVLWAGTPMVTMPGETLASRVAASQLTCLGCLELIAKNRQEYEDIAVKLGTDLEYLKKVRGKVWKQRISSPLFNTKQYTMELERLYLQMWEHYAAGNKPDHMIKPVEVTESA
experiment.notes: SPR, confirmed by MST; also in-gel covalent labelling of purified OGT, competed by OSMI-4
Type: binding
pKd: −log10 of the molar value.
assay.readout: pKd

smiles.notation: C#CCCCCC(=O)N(CC#N)S(=O)(=O)c1ccc2[nH]c(=O)ccc2c1
observed.result: 4.55
